Origin of the recorded values: patent US4283398A

system: Pseudomonas aeruginosa (NCTC 7244); test: minimum bactericidal concentration (MBC); type: cell-based; conditions: NCTC7244, 18 h, inoculum 10^6 cells/ml, subculture on HIA medium, 37° C.
Quantity measured: MBC (µg/mL)
Give the number; µg/mL is assumed, so skip it.

CC1(C)S[C@@H]2[C@H](NC(=O)C(C(=O)O)c3ccccc3)C(=O)N2[C@H]1C(=O)O (stereo partly drawn) [CB-PC, disodium-α-carboxybenzyl penicillin, reference compound] = 100
Cn1nnnc1SCC1=C(C(=O)O)N2C(=O)C(NC(=O)[C@H](NC(=O)c3cnc4c(c3O)C(=O)CCC4)c3ccc(O)cc3)C2SC1 (single isomer, unassigned) [Synthesis Example 2] = 12.5

Next:
Ask: Notebook entry, Pseudomonas aeruginosa (NCTC 7244) assay: MBC of Cn1nnnc1SCC1=C(C(=O)O)N2C(=O)C(NC(=O)[C@H](NC(=O)c3cnc4c(c3O)C(=O)CCC4)c3ccccc3)C2SC1 (single isomer, unassigned) [Synthesis Example 1] = ?
Reply: 12.5
